- system_under_test: human serum albumin (human), P02768
- test_name: SPR (Biacore2000), HSA immobilised on CM-5, analyte injected at 25 nM; qualitative
assay_endpoint: Kd (nM)
Form entry: value (nM) — number only.

Asked: Give the measured Kd of LAEAKVLANRELDKYGVSDYYKNLINNAKTVEGVKALIDEILAALP (modifications not checked) .
Given back: 1.5
